All figures here come from ChEMBL document CHEMBL3751675.

# run.description: Cytotoxicity against rat PC12 cells assessed as reduction in cell viability up to 50 uM by MTT assay
# Type: cell-based
# condition.context: pc-12
test.readout: Activity

| molecule | Activity |
| --- | --- |
| CC(O)/C=C/C=C/C(O)CC/C=C/C(=O)NCC(C)(C)O (stereo not drawn) | Non-toxic |
| C[C@H](O)[C@H](O)/C=C/C=C\CC/C=C/C(=O)NCC(C)(C)O | Non-toxic |
| CC(O)/C=C/C=C/C(=O)C/C=C/C(=O)NCC(C)(C)O (stereo not drawn) | Non-toxic |
| CCOC(/C=C/C=C/C(C)O)CC/C=C/C(=O)NCC(C)(C)O (stereo not drawn) | Non-toxic |
| CC(=O)/C=C/C=C/C(O)CC/C=C/C(=O)NCC(C)(C)O (stereo not drawn) | Non-toxic |
| CCOC(C)/C=C/C=C/C(O)CC/C=C/C(=O)NCC(C)(C)O (stereo not drawn) | Non-toxic |

Provide one value: measured Activity of C[C@H](O)[C@@H](O)/C=C/C=C/CC/C=C/C(=O)NCC(C)(C)O Non-toxic

Using the record for CC(O)/C=C/C=C/C(=O)CC/C=C/C(=O)NCC(C)(C)O (stereo not drawn) , state its measured Activity. Non-toxic
